EC50 (nM) in the Presence of 1 µg/mL hIL-18BP-hFc, hIL-18 reporter assay: recorded values
study_system: T1, hIL-18BP-hFc (human, UniProt O95998 31-194, limits assumed)
T1 sequence (looked up): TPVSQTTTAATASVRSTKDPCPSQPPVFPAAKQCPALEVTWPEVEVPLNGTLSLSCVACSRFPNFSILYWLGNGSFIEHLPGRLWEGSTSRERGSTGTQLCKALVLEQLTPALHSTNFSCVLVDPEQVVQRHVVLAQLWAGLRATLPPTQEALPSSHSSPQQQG
experimental_details: cell-based or functional assay
Reply numerically in nM, unit not repeated.

Before answering, review these 2 worked examples.
{"columns": ["binder", "assay_value"],
 "data": [
  ["IL-18 variant polypeptide M14 (ligand) YFNKLKSKLSVIRNLNDQVLFIDQGNRPLFEDMTDSDCRDNAPRTIFIISMYKPSSSRGMAVTISVKCEKISTLSCENKIISFKEMNPPDRIKDTKSDIIFFQASVPGHDNKMQFESSSYEGYFLACEKERDLFKLILKKEDELGDRSIMFTVQNED", 0.03],
  ["IL-18 variant polypeptide M33 (ligand) YFEKLHSKLSVIRNLNDQVLFIDQGNRPLFEDMTDSDCRDNAPRTIFIISMYKRSTHRGMAVTISVKCEKISTLSCENKIISFKEMNPPDNIKDTKSDIIFFQRSVPGHDNKMQFESSSYEGYFLACEKERDLFKLILKKEDELGDRSIMFTVQNED", 10.7]
]}

Now take the following binder into account.
Incoming: Tell me measured EC50 (nM) in the Presence of 1 µg/mL hIL-18BP-hFc, hIL-18 reporter assay for IL-18 variant polypeptide M36 (ligand) YFPKLSSKLSVIRNLNDQVLFIDQGNRPLFEDMTDSDCRDNAPRTIFIISMYKASDQRGMAVTISVKCEKISTLSCENKIISFKEMNPPDGIKDTKSDIIFFQRSVPGHDNKMQFESSSYEGYFLACEKERDLFKLILKKEDELGDRSIMFTVQNED please.
Outgoing: 2.5
